Listed below: Kd values for each entry.
Target: T1, human BCMA (B cell maturation antigen) (human, UniProt Q02223 1-184)
T1 construct: whole, on cells; also called hBCMA; TNFRSF17
T1 sequence (looked up): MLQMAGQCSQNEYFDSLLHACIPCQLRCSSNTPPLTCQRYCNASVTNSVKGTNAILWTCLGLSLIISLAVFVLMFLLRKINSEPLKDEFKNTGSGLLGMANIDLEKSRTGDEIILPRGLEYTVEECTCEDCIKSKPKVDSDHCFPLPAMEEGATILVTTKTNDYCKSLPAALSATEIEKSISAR
Assay: flow cytometry, FN3 domain titration on HEK293F cells transiently expressing human BCMA, anti-His Alexa-488 detection, PRISM one-site specific binding fit
Express it in nM; write the number only.

>  <BINDER>
D10 BCMA-specific FN3 domain (designed binder, Detected with an anti-His mAb, so the protein tested carried a His tag) MLPAPKNLVVSRITEDSARLSWTAPDAAFDSFPIRYIETLIWGEAIWLYVPGSERSYDLTGLKPGTEYTVVIDGVKGGGRSQPLVASFTT

>  <UNIT ABBREVIATION>
nM

>  <Kd>
4.9

$$$$
>  <BINDER>
G11 BCMA-specific FN3 domain (designed binder, Detected with an anti-His mAb, so the protein tested carried a His tag) MLPAPKNLVVSRITEDSARLSWTAPDAAFDSFWIRYVERLVWGEAIHLHVPGSERSYDLTGLKPGTEYVVVISGVKGGWESTPLVAPFTT

>  <UNIT ABBREVIATION>
nM

>  <Kd>
1.6

$$$$

Note: attention shifts to another entry.
Documented Kd of E02 BCMA-specific FN3 domain (designed binder, Detected with an anti-His mAb, so the protein tested carried a His tag) MLPAPKNLVVSRVTEDSARLSWTAPDAAFDSFVIVYSEPDVCGEAIVLTVPGSERSYDLTGLKPGTEYWVRIAGVKGGDFSRPLSAIFTT : 6.5
